Cited source: paper PMC8389922

Here, each record is paired with measured helicity data.
assay explanation: circular dichroism
reported conditions: water; pH ns; 25 °C; 50 uM
Bridge positions count the residues as written; N and C are the ends. Square brackets hold non-standard residues; d marks the D form. Peptide text beside a SMILES is read from it.
Numbers only here, please. The scale is %.

Would you please look over these solved cases?
compound	helicity [%]
CC[C@H](C)[C@H](NC(=O)[C@H](CCCNC(=N)N)NC(=O)[C@@H]1CCCCNC(=O)CC[C@H](NC(=O)[C@H](Cc2ccccc2)NC(=O)[C@H](Cc2c[nH]c3ccccc23)NC(=O)[C@@H]2CCCN2C(=O)[C@@H](NC(=O)[C@@H](N)Cc2ccccc2)C(C)C)C(=O)N[C@@H](CCCCN)C(=O)N[C@@H](Cc2ccccc2)C(=O)N[C@H](CC(C)C)C(=O)N1)C(=O)N[C@@H](CC(C)C)C(N)=O [compound 24] (H-FVPWFEKF[dL]KRIL-NH2; lactam 6-10)	7
CC[C@H](C)[C@H](NC(=O)[C@H](CCCNC(=N)N)NC(=O)[C@@H]1CSSC[C@H](NC(=O)[C@H](Cc2ccccc2)NC(=O)[C@H](Cc2c[nH]c3ccccc23)NC(=O)[C@@H]2CCCN2C(=O)[C@@H](NC(=O)[C@@H](N)Cc2ccccc2)C(C)C)C(=O)N[C@@H](CCCCN)C(=O)N[C@@H](Cc2ccccc2)C(=O)N[C@H](CC(C)C)C(=O)N1)C(=O)N[C@@H](CC(C)C)C(N)=O [compound 26] (H-FVPWFCKF[dL]CRIL-NH2; disulfide 6-10)	8
CC[C@H](C)[C@H](NC(=O)[C@H](CCCNC(=N)N)NC(=O)[C@]1(C)CCCC=CCCC[C@](C)(NC(=O)[C@H](Cc2ccccc2)NC(=O)[C@H](Cc2c[nH]c3ccccc23)NC(=O)[C@@H]2CCCN2C(=O)[C@@H](NC(=O)[C@@H](N)Cc2ccccc2)C(C)C)C(=O)N[C@@H](CCCCN)C(=O)N[C@@H](Cc2ccccc2)C(=O)N[C@H](CC(C)C)C(=O)N1)C(=O)N[C@@H](CC(C)C)C(N)=O	23

Field: next compound
### Prompt Could you share which helicity value was measured for `CC[C@H](C)[C@H](NC(=O)[C@H](CCCNC(=N)N)NC(=O)[C@@H]1CCCCn2cc(nn2)C[C@H](NC(=O)[C@H](Cc2ccccc2)NC(=O)[C@H](Cc2c[nH]c3ccccc23)NC(=O)[C@@H]2CCCN2C(=O)[C@@H](NC(=O)[C@@H](N)Cc2ccccc2)C(C)C)C(=O)N[C@@H](CCCCN)C(=O)N[C@@H](Cc2ccccc2)C(=O)N[C@H](CC(C)C)C(=O)N1)C(=O)N[C@@H](CC(C)C)C(N)=O` ?
### Response 6

* * *

assay explanation: CD spectroscopy, secondary structure content (DichroWeb)
Format: physicochemical
reported conditions: CD in DPC micelles (20 mM), peptide 50 μM, 25 °C, DichroWeb
Bridge positions count the residues as written; N and C are the ends. Square brackets hold non-standard residues; d marks the D form. Peptide text beside a SMILES is read from it.
quantity: helix-2 (distorted α-helix) (%)
Numbers only here, please. The scale is %.

compound	val
CC[C@H](C)[C@H](NC(=O)[C@H](CCCNC(=N)N)NC(=O)[C@@H]1CCCCn2cc(nn2)C[C@H](NC(=O)[C@H](Cc2ccccc2)NC(=O)[C@H](Cc2c[nH]c3ccccc23)NC(=O)[C@@H]2CCCN2C(=O)[C@@H](NC(=O)[C@@H](N)Cc2ccccc2)C(C)C)C(=O)N[C@@H](CCCCN)C(=O)N[C@@H](Cc2ccccc2)C(=O)NC(CC(C)C)C(=O)N1)C(=O)N[C@@H](CC(C)C)C(N)=O (stereo in doubt)	18
CC[C@H](C)[C@H](NC(=O)[C@H](CCCNC(=N)N)NC(=O)[C@]1(C)CCCC=CCCC[C@](C)(NC(=O)[C@H](Cc2ccccc2)NC(=O)[C@H](Cc2c[nH]c3ccccc23)NC(=O)[C@@H]2CCCN2C(=O)[C@@H](NC(=O)[C@@H](N)Cc2ccccc2)C(C)C)C(=O)N[C@@H](CCCCN)C(=O)N[C@@H](Cc2ccccc2)C(=O)N[C@H](CC(C)C)C(=O)N1)C(=O)N[C@@H](CC(C)C)C(N)=O	34
CC[C@H](C)[C@H](NC(=O)[C@H](CCCNC(=N)N)NC(=O)[C@@H]1CCC(=O)NCCCC[C@H](NC(=O)[C@H](Cc2ccccc2)NC(=O)[C@H](Cc2c[nH]c3ccccc23)NC(=O)[C@@H]2CCCN2C(=O)[C@@H](NC(=O)[C@@H](N)Cc2ccccc2)C(C)C)C(=O)N[C@@H](CCCCN)C(=O)N[C@@H](Cc2ccccc2)C(=O)N[C@H](CC(C)C)C(=O)N1)C(=O)N[C@@H](CC(C)C)C(N)=O [compound 12] (H-FVPWFKKF[dL]ERIL-NH2; lactam 6-10)	21

Field: next compound
### Prompt Could you share which helix-2 (distorted α-helix) value was measured for CC[C@H](C)[C@H](NC(=O)[C@H](CCCNC(=N)N)NC(=O)[C@@H]1CCCCNC(=O)CC[C@H](NC(=O)[C@H](Cc2ccccc2)NC(=O)[C@H](Cc2c[nH]c3ccccc23)NC(=O)[C@@H]2CCCN2C(=O)[C@@H](NC(=O)[C@@H](N)Cc2ccccc2)C(C)C)C(=O)N[C@@H](CCCCN)C(=O)N[C@@H](Cc2ccccc2)C(=O)N[C@H](CC(C)C)C(=O)N1)C(=O)N[C@@H](CC(C)C)C(N)=O [compound 24] (H-FVPWFEKF[dL]KRIL-NH2; lactam 6-10) ?
### Response 23
